# EXPERIMENT SUMMARY: Stability of the compound in human plasma assessed as half life by LC-MS/MS analysis
# Format: ADME, cell-free
ATTRIBUTE MEASURED: half-life (min)
Answers are plain numbers, in min.

**Q:** Recorded half-life of `COc1cc2sc3c(c2cc1OC)C(=O)N(CCC(=O)O)C3=O` , please.
**A:** 30

====

# EXPERIMENT SUMMARY: Metabolic stability in human liver microsomes assessed as half life at 10 uM measured up to 60 mins by LC-MS/MS analysis
# Assay type: ADME, Microsome
Please provide measured half-life at 10 µM for the entries that follow.

INPUT SMILES | ATTRIBUTE MEASURED | MEASURED VALUE
CC[C@H](CNC(=O)c1[se]c2cc(OC)c(OC)cc2c1F)C(=O)O | half-life at 10 µM | > 1 h

With those in mind, consider the next molecule.
**Q:** Entry under review: `COc1cc2sc3c(c2cc1OC)C(=O)N(CCC(=O)O)C3=O` . Reported half-life at 10 µM?
**A:** > 1 h

====

# EXPERIMENT SUMMARY: Cmax in mouse at 10 mg/kg, po by LC-MS/MS analysis
# Assay type: ADME, organism-based
# TEST CONDITIONS: in vivo
Provide the recorded Cmax for the entries that follow.
Give bare numbers, in µg/mL.

INPUT SMILES | ATTRIBUTE MEASURED | OUTPUT UNIT | MEASURED VALUE
CC[C@H](CNC(=O)c1[se]c2cc(OC)c(OC)cc2c1F)C(=O)O | Cmax | µg/mL | 20.6

Could you now consider this next compound?
**Q:** Which Cmax value is on record for `COc1cc2cc(C(=O)CCC(=O)O)sc2cc1OC` ?
**A:** 13.4

====

# TARGET OR TEST SYSTEM: Stimulator of interferon genes protein (Mus musculus)
# Sequence (Q3TBT3 whole entry): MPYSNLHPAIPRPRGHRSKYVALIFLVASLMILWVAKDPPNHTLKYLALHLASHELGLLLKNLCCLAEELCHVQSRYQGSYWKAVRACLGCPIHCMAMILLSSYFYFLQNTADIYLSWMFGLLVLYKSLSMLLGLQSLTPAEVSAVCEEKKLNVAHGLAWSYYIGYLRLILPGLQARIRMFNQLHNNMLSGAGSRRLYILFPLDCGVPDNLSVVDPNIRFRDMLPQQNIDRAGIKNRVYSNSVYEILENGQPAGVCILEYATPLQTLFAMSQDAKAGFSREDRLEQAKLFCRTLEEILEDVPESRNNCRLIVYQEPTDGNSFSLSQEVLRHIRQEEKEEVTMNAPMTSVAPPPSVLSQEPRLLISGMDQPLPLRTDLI
# EXPERIMENT SUMMARY: Agonist activity at mouse STING expressed in human THP1-Dual cells assessed as fold change in stimulation activity measured after 24 hrs incubation by QUANTI-Luc4 based microplate reader
Provide the reported pEC50 of each item.
Numbers only, as −log10 of the molar value.

Examples with their reported pEC50 follow.
MOLECULE | TARGET OR TEST SYSTEM | ATTRIBUTE MEASURED | MEASURED VALUE
COc1cc2sc(C(=O)NC[C@@H](C)C(=O)O)c(F)c2cc1OC | Stimulator of interferon genes protein (Mus musculus) | pEC50 | 4.55
COc1cc2sc3c(c2cc1OC)C(=O)N(CCC(=O)O)C3=O | Stimulator of interferon genes protein (Mus musculus) | pEC50 | 4.60

# ---- query molecule ----
**Q:** Recorded pEC50 for CCC(CNC(=O)c1[se]c2cc(OC)c(OC)cc2c1F)C(=O)O (centres undefined) , please?
**A:** 4.90

Data credit: ChEMBL document CHEMBL6178018
